Values were extracted from patent US5804415A.

Target: EP3α receptor (MP660/KCR cells) (Mus musculus, UniProt P30557)
Construct: A full-length DNA clone having a 1,095 bp open reading frame, MP660, was thus obtained; expressed in transfected cells; host or cells: CHO-dhfr (lacking dihydrofolate reductase activity) cells; FERM BP-3803)
Sequence (P30557 1-365): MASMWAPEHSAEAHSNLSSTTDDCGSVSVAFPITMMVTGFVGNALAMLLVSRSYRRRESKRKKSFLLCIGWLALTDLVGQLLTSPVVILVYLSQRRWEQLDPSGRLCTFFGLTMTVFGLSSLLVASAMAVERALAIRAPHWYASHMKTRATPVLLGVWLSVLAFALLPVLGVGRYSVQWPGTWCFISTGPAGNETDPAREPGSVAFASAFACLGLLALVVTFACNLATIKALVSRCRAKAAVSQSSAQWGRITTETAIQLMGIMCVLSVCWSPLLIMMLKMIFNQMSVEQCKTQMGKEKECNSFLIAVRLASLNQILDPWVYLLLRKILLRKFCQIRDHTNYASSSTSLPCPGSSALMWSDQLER
Assay: Forskolin-stimulated cAMP synthesis in CHO cells stably expressing EP3α (MP660/KCR cells)
Assay type: cell-based
Conditions: forskolin-induced, FIG. 3, read-out: IC50 (inhibition of forskolin-induced cAMP synthesis)
pIC50: −log10 of the molar value.

compound: CCCCC[C@H](O)/C=C/[C@H]1[C@H](O)CC(=O)[C@@H]1C/C=C\CCCC(=O)O [PGE2, prostaglandin E2]
subject.of.test: EP3α receptor (MP660/KCR cells) (Mus musculus, UniProt P30557)
pIC50: 10.00

----------
biological target: PGE2 receptor (EP2) (MP412) (Mus musculus, UniProt P32240); assay: Inhibition of [3H]-PGE2 binding to MP412-transfected COS-1 cell membranes; conditions: FIG. 8
Sequence (P32240 whole entry): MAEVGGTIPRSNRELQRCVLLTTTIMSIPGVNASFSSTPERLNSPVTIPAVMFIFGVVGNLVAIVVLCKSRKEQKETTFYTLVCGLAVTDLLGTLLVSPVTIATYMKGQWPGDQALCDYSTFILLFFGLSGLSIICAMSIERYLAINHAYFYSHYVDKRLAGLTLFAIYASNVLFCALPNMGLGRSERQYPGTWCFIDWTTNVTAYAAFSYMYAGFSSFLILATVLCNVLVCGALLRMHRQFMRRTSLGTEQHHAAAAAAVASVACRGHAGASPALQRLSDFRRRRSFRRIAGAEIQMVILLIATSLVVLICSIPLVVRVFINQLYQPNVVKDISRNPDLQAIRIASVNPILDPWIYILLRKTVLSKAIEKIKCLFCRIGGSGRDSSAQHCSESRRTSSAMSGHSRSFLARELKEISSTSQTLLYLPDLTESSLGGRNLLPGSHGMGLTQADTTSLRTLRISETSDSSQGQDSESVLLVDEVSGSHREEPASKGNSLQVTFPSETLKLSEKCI
experimental.readout: inhibition of PGE2 binding by subtype ligands

chemical.smiles: CCCC1([C@H](O)C/C=C/[C@H]2[C@H](O)CC(=O)[C@@H]2CCCCCCC(=O)OC)CCC1
experimental.result: did not inhibit it
//
chemical.smiles: CS(=O)(=O)NC(=O)CCC/C=C\C[C@H]1C(=O)C[C@@H](O)[C@@H]1/C=C/[C@@H](O)COc1ccccc1
experimental.result: did not inhibit it
//
chemical.smiles: CC(=O)NNC(=O)N1Cc2ccccc2Oc2ccc(Cl)cc21
experimental.result: did not inhibit it
